# Protocol Details: NADH-endpoint coupling enzyme inhibition profiling – biochemical, MLSMR library, artefact control, profiling panel (AID 774);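 further: the DPM-DC format reads NADH fluorescence rather than 340 nm absorbance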
# Condition Label: coupled PK/LDH NADH assays, four targets; at 10 µM; active compounds read high
The whole screen tested about 65,000 compounds, of which about 15 (0.02%) were called active. Only a sample is shown.
Readout Kind: inhibition (%)
Lab book: enter the figure in %, no units written.

Consider the molecule COC(=O)Cc1c(C)c2ccc(OCC(=O)NCc3ccc4c(c3)OCO4)cc2oc1=O . State its measured inhibition.
10

Consider the molecule Cc1cccc(OCC(O)Cn2c(=N)n(CCN3CCOCC3)c3ccccc32)c1 (stereo not drawn) . State its measured inhibition.
6

Consider the molecule O=C(Nc1ccccc1N1CCN(C(=O)c2ccccc2)CC1)c1ccc2c(c1)OCO2 . State its measured inhibition.
4

Consider the molecule O=C(CS(=O)(=O)c1cn(Cc2ccc(Cl)cc2)c2ccccc12)N1CCOCC1 . State its measured inhibition.
1

Consider the molecule Cc1ccn2cc(C(=O)NC3CCN(Cc4ccccc4)CC3)nc2c1 . State its measured inhibition.
4

Consider the molecule CCN(CC)C(=O)CSc1nnc(-c2ccc(S(=O)(=O)NCc3ccccc3Cl)cc2)o1 . State its measured inhibition.
6

Consider the molecule COc1cccc2c(C)c(C(=O)O)[nH]c12 . State its measured inhibition.
14

Consider the molecule COc1cc(OC)cc(C(=O)Nc2ccc(-c3nc4ccccc4o3)c(O)c2)c1 . State its measured inhibition.
9

Consider the molecule COc1ccc(OC)c(C(=O)c2coc3ccc(OC)cc23)c1 . State its measured inhibition.
0

Consider the molecule Cc1ccc(CCn2c3c(c4ccccc42)CN(C)CC3)cn1 . State its measured inhibition.
2

Consider the molecule COC(=O)CN(c1cccc(C(C)=O)c1)S(C)(=O)=O . State its measured inhibition.
6

Consider the molecule CC(C)CCNc1nc(N2CCCC2)c2c(c1C#N)CCN(C)C2 . State its measured inhibition.
7

Consider the molecule O=C(NCc1ccco1)c1cc2sccc2n1Cc1ccc(F)cc1 . State its measured inhibition.
5
